Below: a set of entries, each annotated with reported Absorption maximum.
- METHOD_SUMMARY: Absorption maximum of the structures
- Assay type: physicochemical
- CONDITION_CONTEXT: Table 3; measured in methanol, or if not soluble in methanol, in ethanol
Hi! Could you send only the number? It should be in nm, unit omitted.

Cc1ccc(S(=O)(=O)/C(C#N)=C\C=C2\OCC(C)(C)N2C)cc1 ... 361

Value lookup for Absorption maximum; key = CCCCCCOC(=O)/C(=C/C=C1/OCC(C)(C)N1C)S(=O)(=O)c1ccccc1
362

Please report the recorded Absorption maximum for CCCCCCCCCCN1/C(=C\C=C(\C(C)=O)S(=O)(=O)c2ccccc2)OCC1(C)C .
373

So what does the record say about Absorption maximum for CCCCCCCCCCCCOC(=O)/C(C#N)=C/C=C1/OCC(C)(C)N1C ?
374

Request the reported Absorption maximum associated with CCCCCCCCCCCCN1/C(=C\C=C(C#N)C#N)OCC1(C)C
372

Param item = CCCCCCCCCCN1CCC/C1=C/C=C(/C(C)=O)S(=O)(=O)c1ccccc1 ; retrieve measured Absorption maximum.
392

Reported Absorption maximum for CCCCCCCCCCN1CCC/C1=C/C=C(/C(=O)OCC)S(=O)(=O)c1ccc(OC)cc1 : what is it?
375

# get_value(readout='Absorption maximum', item= CCCCCCCCCCN1/C(=C\C=C(\C(=O)OCCCCCC)S(=O)(=O)c2ccc(C)cc2)SCC1C (centres unmarked) )
392
